Tested on: Escherichia coli TOP10
experiment-notes: shrunken log2 fold change of peptide-encoding DNA abundance (4.5 h post-induction vs induction); higher = less antimicrobial activity (less host growth inhibition)
recorded-conditions: time post-induction: 4.5 h; library: site-saturation at positions 5, 18, 19, 20
Entries and their shrunken log2 fold change

macromolecule-sequence: RRIRPRPPRLPRPRPRPGLTPRP
tgt: Escherichia coli TOP10
shrunken log2 fold change: 0.0985
--
macromolecule-sequence: RRIRVRPPRLPRPRPRPAMGPRP
tgt: Escherichia coli TOP10
shrunken log2 fold change: 0.34
--
macromolecule-sequence: RRIRRRPPRLPRPRPRPPCCPRP
tgt: Escherichia coli TOP10
shrunken log2 fold change: 0.623
--
macromolecule-sequence: RRIRPRPPRLPRPRPRPVQEPRP
tgt: Escherichia coli TOP10
shrunken log2 fold change: -0.0759
--
macromolecule-sequence: RRIRNRPPRLPRPRPRPMNKPRP
tgt: Escherichia coli TOP10
shrunken log2 fold change: 0.0642
--
macromolecule-sequence: RRIRFRPPRLPRPRPRPKHNPRP
tgt: Escherichia coli TOP10
shrunken log2 fold change: -0.483
--
macromolecule-sequence: RRIRVRPPRLPRPRPRPAKLPRP
tgt: Escherichia coli TOP10
shrunken log2 fold change: 0.139
--
macromolecule-sequence: RRIRFRPPRLPRPRPRPWCVPRP
tgt: Escherichia coli TOP10
shrunken log2 fold change: -0.384
--
macromolecule-sequence: RRIRDRPPRLPRPRPRPDSCPRP
tgt: Escherichia coli TOP10
shrunken log2 fold change: 0.0444
--
macromolecule-sequence: RRIRWRPPRLPRPRPRPRPFPRP
tgt: Escherichia coli TOP10
shrunken log2 fold change: 0.56
--
macromolecule-sequence: RRIRPRPPRLPRPRPRPFMNPRP
tgt: Escherichia coli TOP10
shrunken log2 fold change: -0.198
--
macromolecule-sequence: RRIRTRPPRLPRPRPRPMPGPRP
tgt: Escherichia coli TOP10
shrunken log2 fold change: 0.106
--
macromolecule-sequence: RRIRKRPPRLPRPRPRPFFYPRP
tgt: Escherichia coli TOP10
shrunken log2 fold change: 0.0957
--
macromolecule-sequence: RRIRWRPPRLPRPRPRPQSEPRP
tgt: Escherichia coli TOP10
shrunken log2 fold change: -0.338
--
macromolecule-sequence: RRIRGRPPRLPRPRPRPQCPPRP
tgt: Escherichia coli TOP10
shrunken log2 fold change: 0.337
--
macromolecule-sequence: RRIRDRPPRLPRPRPRPIPWPRP
tgt: Escherichia coli TOP10
shrunken log2 fold change: 0.077
--
macromolecule-sequence: RRIRMRPPRLPRPRPRPQLMPRP
tgt: Escherichia coli TOP10
shrunken log2 fold change: 0.0471
--
macromolecule-sequence: RRIRFRPPRLPRPRPRPDSWPRP
tgt: Escherichia coli TOP10
shrunken log2 fold change: -0.161
--
macromolecule-sequence: RRIRTRPPRLPRPRPRPPLKPRP
tgt: Escherichia coli TOP10
shrunken log2 fold change: -0.0323
--
macromolecule-sequence: RRIRIRPPRLPRPRPRPKQDPRP
tgt: Escherichia coli TOP10
shrunken log2 fold change: -0.354
--
macromolecule-sequence: RRIRNRPPRLPRPRPRPNKLPRP
tgt: Escherichia coli TOP10
shrunken log2 fold change: -0.36
--
macromolecule-sequence: RRIRYRPPRLPRPRPRPSSWPRP
tgt: Escherichia coli TOP10
shrunken log2 fold change: -0.284
--
macromolecule-sequence: RRIRFRPPRLPRPRPRPMGNPRP
tgt: Escherichia coli TOP10
shrunken log2 fold change: -0.707
--
macromolecule-sequence: RRIRGRPPRLPRPRPRPPNRPRP
tgt: Escherichia coli TOP10
shrunken log2 fold change: 0.427
--
macromolecule-sequence: RRIRKRPPRLPRPRPRPRLGPRP
tgt: Escherichia coli TOP10
shrunken log2 fold change: 0.587
--
macromolecule-sequence: RRIRYRPPRLPRPRPRPQKKPRP
tgt: Escherichia coli TOP10
shrunken log2 fold change: 0.0261
--
macromolecule-sequence: RRIRVRPPRLPRPRPRPCKGPRP
tgt: Escherichia coli TOP10
shrunken log2 fold change: -0.117
--
macromolecule-sequence: RRIRERPPRLPRPRPRPFRAPRP
tgt: Escherichia coli TOP10
shrunken log2 fold change: 0.0204
--
macromolecule-sequence: RRIRFRPPRLPRPRPRPMIKPRP
tgt: Escherichia coli TOP10
shrunken log2 fold change: -0.749
--
macromolecule-sequence: RRIRQRPPRLPRPRPRPSYSPRP
tgt: Escherichia coli TOP10
shrunken log2 fold change: -0.298
--
macromolecule-sequence: RRIRTRPPRLPRPRPRPDDPPRP
tgt: Escherichia coli TOP10
shrunken log2 fold change: -0.00805
--
macromolecule-sequence: RRIRPRPPRLPRPRPRPHANPRP
tgt: Escherichia coli TOP10
shrunken log2 fold change: -0.0736
--
macromolecule-sequence: RRIRCRPPRLPRPRPRPQWHPRP
tgt: Escherichia coli TOP10
shrunken log2 fold change: 0.0206
--
macromolecule-sequence: RRIRKRPPRLPRPRPRPKCTPRP
tgt: Escherichia coli TOP10
shrunken log2 fold change: 0.0297
--
macromolecule-sequence: RRIRERPPRLPRPRPRPHMFPRP
tgt: Escherichia coli TOP10
shrunken log2 fold change: -0.749
--
macromolecule-sequence: RRIRKRPPRLPRPRPRPWCCPRP
tgt: Escherichia coli TOP10
shrunken log2 fold change: -0.187
--
macromolecule-sequence: RRIRMRPPRLPRPRPRPFRMPRP
tgt: Escherichia coli TOP10
shrunken log2 fold change: 0.00199
--
macromolecule-sequence: RRIRQRPPRLPRPRPRPRTLPRP
tgt: Escherichia coli TOP10
shrunken log2 fold change: 0.0409
--
macromolecule-sequence: RRIRERPPRLPRPRPRPCLIPRP
tgt: Escherichia coli TOP10
shrunken log2 fold change: -0.0716
--
macromolecule-sequence: RRIRFRPPRLPRPRPRPREPPRP
tgt: Escherichia coli TOP10
shrunken log2 fold change: 0.208
--
macromolecule-sequence: RRIRDRPPRLPRPRPRPTMWPRP
tgt: Escherichia coli TOP10
shrunken log2 fold change: 0.176
--
macromolecule-sequence: RRIRRRPPRLPRPRPRPMELPRP
tgt: Escherichia coli TOP10
shrunken log2 fold change: 0.212
--
macromolecule-sequence: RRIRPRPPRLPRPRPRPAPIPRP
tgt: Escherichia coli TOP10
shrunken log2 fold change: 0.0955
--
macromolecule-sequence: RRIRDRPPRLPRPRPRPVQAPRP
tgt: Escherichia coli TOP10
shrunken log2 fold change: 0.0233
--
macromolecule-sequence: RRIRTRPPRLPRPRPRPHLCPRP
tgt: Escherichia coli TOP10
shrunken log2 fold change: -0.17
--
macromolecule-sequence: RRIRFRPPRLPRPRPRPENLPRP
tgt: Escherichia coli TOP10
shrunken log2 fold change: -0.0251
--
macromolecule-sequence: RRIRYRPPRLPRPRPRPLRLPRP
tgt: Escherichia coli TOP10
shrunken log2 fold change: 0.077
--
macromolecule-sequence: RRIRLRPPRLPRPRPRPECMPRP
tgt: Escherichia coli TOP10
shrunken log2 fold change: 0.442
--
macromolecule-sequence: RRIRRRPPRLPRPRPRPWHAPRP
tgt: Escherichia coli TOP10
shrunken log2 fold change: 0.279
--
macromolecule-sequence: RRIRSRPPRLPRPRPRPSCPPRP
tgt: Escherichia coli TOP10
shrunken log2 fold change: -0.494
--
macromolecule-sequence: RRIRQRPPRLPRPRPRPKYPPRP
tgt: Escherichia coli TOP10
shrunken log2 fold change: 0.0386
--
macromolecule-sequence: RRIRTRPPRLPRPRPRPDWSPRP
tgt: Escherichia coli TOP10
shrunken log2 fold change: 0.163
--
macromolecule-sequence: RRIRIRPPRLPRPRPRPFSDPRP
tgt: Escherichia coli TOP10
shrunken log2 fold change: -0.227
--
macromolecule-sequence: RRIRLRPPRLPRPRPRPVAKPRP
tgt: Escherichia coli TOP10
shrunken log2 fold change: 0.123
--
macromolecule-sequence: RRIRTRPPRLPRPRPRPQKGPRP
tgt: Escherichia coli TOP10
shrunken log2 fold change: -0.00821
--
macromolecule-sequence: RRIRRRPPRLPRPRPRPVAMPRP
tgt: Escherichia coli TOP10
shrunken log2 fold change: 0.342
--
macromolecule-sequence: RRIRFRPPRLPRPRPRPWGSPRP
tgt: Escherichia coli TOP10
shrunken log2 fold change: -0.0689
--
macromolecule-sequence: RRIRMRPPRLPRPRPRPLQEPRP
tgt: Escherichia coli TOP10
shrunken log2 fold change: 2.68
--
macromolecule-sequence: RRIRKRPPRLPRPRPRPCVYPRP
tgt: Escherichia coli TOP10
shrunken log2 fold change: 0.109
--
macromolecule-sequence: RRIRFRPPRLPRPRPRPEGIPRP
tgt: Escherichia coli TOP10
shrunken log2 fold change: 0.00745
--
macromolecule-sequence: RRIRMRPPRLPRPRPRPEKFPRP
tgt: Escherichia coli TOP10
shrunken log2 fold change: -0.000921
--
macromolecule-sequence: RRIRARPPRLPRPRPRPSEIPRP
tgt: Escherichia coli TOP10
shrunken log2 fold change: -0.00993
--
macromolecule-sequence: RRIRDRPPRLPRPRPRPDHAPRP
tgt: Escherichia coli TOP10
shrunken log2 fold change: -0.00822

---

Test system: Escherichia coli TOP10;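 also: peptides expressed intracellularly from a pBAD plasmid library in pooled LB shake-flask culture, induced with 0.3% L-arabinose, DNA abundance read by NGS, three biological replicates, DESeq2 with apeglm shrinkage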
experiment-notes: shrunken log2 fold change of peptide-encoding DNA abundance (4.5 h post-induction vs induction); higher = less antimicrobial activity (less host growth inhibition)
recorded-conditions: time post-induction: 4.5 h; library: site-saturation at positions 5, 18, 19, 20
Would you mind classing the entries by shrunken log2 fold change? Ranges: lower segment = under -0.1, middle segment = from -0.1 up to 0.08, upper segment = 0.08 and over

macromolecule-sequence: RRIRLRPPRLPRPRPRPMVAPRP
tgt: Escherichia coli TOP10
classification: lower segment

macromolecule-sequence: RRIRTRPPRLPRPRPRPASCPRP
tgt: Escherichia coli TOP10
classification: middle segment

macromolecule-sequence: RRIRFRPPRLPRPRPRPCPAPRP
tgt: Escherichia coli TOP10
classification: upper segment

macromolecule-sequence: RRIRERPPRLPRPRPRPRKWPRP
tgt: Escherichia coli TOP10
classification: upper segment

macromolecule-sequence: RRIRQRPPRLPRPRPRPEQVPRP
tgt: Escherichia coli TOP10
classification: upper segment

macromolecule-sequence: RRIRNRPPRLPRPRPRPGCRPRP
tgt: Escherichia coli TOP10
classification: upper segment

macromolecule-sequence: RRIRCRPPRLPRPRPRPIMLPRP
tgt: Escherichia coli TOP10
classification: lower segment

macromolecule-sequence: RRIRMRPPRLPRPRPRPNGDPRP
tgt: Escherichia coli TOP10
classification: upper segment

macromolecule-sequence: RRIRPRPPRLPRPRPRPDYDPRP
tgt: Escherichia coli TOP10
classification: lower segment

macromolecule-sequence: RRIRQRPPRLPRPRPRPSIKPRP
tgt: Escherichia coli TOP10
classification: lower segment

macromolecule-sequence: RRIRRRPPRLPRPRPRPRQAPRP
tgt: Escherichia coli TOP10
classification: upper segment

macromolecule-sequence: RRIRIRPPRLPRPRPRPEVFPRP
tgt: Escherichia coli TOP10
classification: lower segment

macromolecule-sequence: RRIRNRPPRLPRPRPRPEGGPRP
tgt: Escherichia coli TOP10
classification: middle segment

macromolecule-sequence: RRIRGRPPRLPRPRPRPFNAPRP
tgt: Escherichia coli TOP10
classification: lower segment

macromolecule-sequence: RRIRYRPPRLPRPRPRPTFSPRP
tgt: Escherichia coli TOP10
classification: lower segment

macromolecule-sequence: RRIRERPPRLPRPRPRPFYIPRP
tgt: Escherichia coli TOP10
classification: lower segment

macromolecule-sequence: RRIRQRPPRLPRPRPRPYKYPRP
tgt: Escherichia coli TOP10
classification: lower segment

macromolecule-sequence: RRIRVRPPRLPRPRPRPPQWPRP
tgt: Escherichia coli TOP10
classification: upper segment

macromolecule-sequence: RRIRGRPPRLPRPRPRPMAYPRP
tgt: Escherichia coli TOP10
classification: upper segment

macromolecule-sequence: RRIRGRPPRLPRPRPRPYEKPRP
tgt: Escherichia coli TOP10
classification: middle segment

macromolecule-sequence: RRIRTRPPRLPRPRPRPSDLPRP
tgt: Escherichia coli TOP10
classification: middle segment

macromolecule-sequence: RRIRTRPPRLPRPRPRPALNPRP
tgt: Escherichia coli TOP10
classification: middle segment

macromolecule-sequence: RRIRLRPPRLPRPRPRPFQRPRP
tgt: Escherichia coli TOP10
classification: middle segment

macromolecule-sequence: RRIRVRPPRLPRPRPRPHSFPRP
tgt: Escherichia coli TOP10
classification: lower segment

macromolecule-sequence: RRIRNRPPRLPRPRPRPGFIPRP
tgt: Escherichia coli TOP10
classification: middle segment

macromolecule-sequence: RRIRGRPPRLPRPRPRPREKPRP
tgt: Escherichia coli TOP10
classification: upper segment

macromolecule-sequence: RRIRKRPPRLPRPRPRPSLYPRP
tgt: Escherichia coli TOP10
classification: upper segment

macromolecule-sequence: RRIRIRPPRLPRPRPRPFPCPRP
tgt: Escherichia coli TOP10
classification: middle segment

macromolecule-sequence: RRIRVRPPRLPRPRPRPLHRPRP
tgt: Escherichia coli TOP10
classification: middle segment

macromolecule-sequence: RRIRKRPPRLPRPRPRPHCCPRP
tgt: Escherichia coli TOP10
classification: middle segment

macromolecule-sequence: RRIRRRPPRLPRPRPRPMGRPRP
tgt: Escherichia coli TOP10
classification: upper segment

macromolecule-sequence: RRIRVRPPRLPRPRPRPCPFPRP
tgt: Escherichia coli TOP10
classification: lower segment
